# protocol_notes: Intrinsic clearance in human liver microsome
# Format: ADME
# measurement_conditions: liver microsomes
measured_endpoint: microsomal CLint

Value of microsomal CLint reported for the compound COc1cccc2c1c(C(=O)/C=C(\O)C(=O)O)cn2Cc1ccc(F)cc1 is 11 µL/min/mg

* * *

# protocol_notes: Apparent permeability from apical to basolateral side of human Caco2 cells
# Assay type: ADME, cell-based
# measurement_conditions: Caco-2
measured_endpoint: Papp A→B (×10⁻⁶ cm/s)
Please respond with the number in ×10⁻⁶ cm/s and leave the unit unwritten.

Value of Papp A→B reported for the molecule COc1cccc2c1c(C(=O)/C=C(\O)C(=O)O)cn2Cc1ccc(F)cc1 is 5.5

* * *

What CC50 was measured for each of the following?
# protocol_notes: Cytotoxicity against human MT4 cells by MTT assay
# Type: cell-based
Please respond with the number in µM and leave the unit unwritten.

Value of CC50 reported for the molecule O=C(O)/C(O)=C/C(=O)c1cn(Cc2ccccc2)c2ccccc12 is 64.1

Value of CC50 reported for the molecule O=C(O)C(=O)CC(=O)c1cc(OCc2ccccc2)cc(OCc2ccccc2)c1 is 62

Value of CC50 reported for the molecule O=C(NCc1ccc(F)cc1)c1nc(N2CCCCS2(=O)=O)c2cccnc2c1O is 2.25

* * *

What pIC50 was measured for each of the following?
# measured_on: Human immunodeficiency virus type 1 integrase (Human immunodeficiency virus 1)
# Sequence (Q7ZJM1 whole entry): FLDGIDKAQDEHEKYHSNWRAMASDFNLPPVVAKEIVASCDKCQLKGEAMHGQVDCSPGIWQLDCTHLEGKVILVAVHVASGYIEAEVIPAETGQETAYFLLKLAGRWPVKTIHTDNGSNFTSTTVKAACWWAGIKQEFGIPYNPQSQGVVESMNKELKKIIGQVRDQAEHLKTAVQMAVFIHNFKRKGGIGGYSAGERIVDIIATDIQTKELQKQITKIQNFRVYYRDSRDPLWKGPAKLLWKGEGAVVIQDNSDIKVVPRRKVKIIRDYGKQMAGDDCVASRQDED
# protocol_notes: Inhibition of Human immunodeficiency virus 1 integrase strand transfer activity
pIC50 (log units): -log10 of the concentration in mol/L.

Value of pIC50 reported for the compound O=C(O)/C(O)=C/C(=O)c1cn(Cc2ccccc2)c2ccccc12 is 5.63

Value of pIC50 reported for the compound O=C(NCc1ccc(F)cc1)c1nc(N2CCCCS2(=O)=O)c2cccnc2c1O is 8.15

* * *

What selectivity ratio was measured for each of the following?
# protocol_notes: Selectivity index, ratio of CC50 for human MT4 cells to EC50 for Human immunodeficiency virus 1 3B
# Assay type: toxicity, cell-based
# measurement_conditions: read-out: Ratio CC50/EC50
No unit in the answer, only the number.

Value of selectivity ratio reported for the molecule CCOC(=O)/C(O)=C/C(=O)c1cn(Cc2ccc(F)cc2)c2c(OC)ccc(OC)c12 is 20

Value of selectivity ratio reported for the molecule COc1cccc2c1c(C(=O)/C=C(\O)C(=O)O)cn2Cc1ccc(F)cc1 is 69.8

Value of selectivity ratio reported for the molecule COc1ccc2c(C(=O)/C=C(\O)C(=O)O)cn(Cc3ccc(F)cc3)c2c1 is 8

Value of selectivity ratio reported for the molecule O=C(O)/C(O)=C/C(=O)c1cn(Cc2ccccc2)c2ccccc12 is 8

Value of selectivity ratio reported for the molecule CCOC(=O)/C(O)=C/C(=O)c1cn(Cc2ccc(F)cc2)c2cccc(OC)c12 is 24

Value of selectivity ratio reported for the molecule O=C(NCc1ccc(F)cc1)c1nc(N2CCCCS2(=O)=O)c2cccnc2c1O is 460

Value of selectivity ratio reported for the molecule COc1ccc2c(c1)c(C(=O)/C=C(\O)C(=O)O)cn2Cc1ccc(F)cc1 is 12

Value of selectivity ratio reported for the molecule COc1cccc2c(C(=O)/C=C(\O)C(=O)O)cn(Cc3ccc(F)cc3)c12 is 12

Value of selectivity ratio reported for the molecule COc1ccc(OC)c2c1c(C(=O)/C=C(\O)C(=O)O)cn2Cc1ccc(F)cc1 is 100

Value of selectivity ratio reported for the molecule CCOC(=O)/C(O)=C/C(=O)c1cn(Cc2ccc(F)cc2)c2ccc(OC)cc12 is 11

Value of selectivity ratio reported for the molecule O=C(O)C(=O)CC(=O)c1cc(OCc2ccccc2)cc(OCc2ccccc2)c1 is 5

Value of selectivity ratio reported for the molecule CCOC(=O)/C(O)=C/C(=O)c1cn(Cc2ccc(F)cc2)c2c(OC)cccc12 is 1
